Recorded values, source PubChem BioAssay AID781.

- target of assay: 14-3-3 protein zeta/delta (Bos taurus)
- test details: disruptors of 14-3-3 zeta phospho-Bad complex – biochemical, TR-FRET, bovine 14-3-3 zeta, primary screen (AID 781);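 also: 0% = full 14-3-3 plus peptide FRET controls and 100% = background without 14-3-3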
- experimental conditions: TR-FRET 14-3-3zeta/Dy647-pBad peptide displacement, 1 h; at 21.7 µM; hits give high values
Among all 220,000 compounds or so, about 1,600 (0.73%) were called active. Shown is part of a subset that was picked to be rich in actives.
assay metric: inhibition

compound: CCOC(=O)c1c(NC(=O)c2cccs2)sc(C)c1C
target of assay: 14-3-3 protein zeta/delta (Bos taurus)
inhibition: 10.5% (inactive)

compound: Cc1cc(=O)[nH]c(=S)[nH]1
target of assay: 14-3-3 protein zeta/delta (Bos taurus)
inhibition: 0.3% (inactive)

compound: S=c1[nH]nc(-c2ccccc2)n1/N=C/c1c[nH]c2ccccc12
target of assay: 14-3-3 protein zeta/delta (Bos taurus)
inhibition: -8.9% (inactive)

compound: CCOC(=O)c1cc2c(=O)n3ccccc3nc2n(CC(C)C)c1=NC(=O)c1c(-c2c(F)cccc2Cl)noc1C
target of assay: 14-3-3 protein zeta/delta (Bos taurus)
inhibition: -8.06% (inactive)

compound: Cc1ccnc(NS(=O)(=O)c2ccc(NC(=O)c3ccc(S(=O)(=O)N(C)C)cc3)cc2)n1
target of assay: 14-3-3 protein zeta/delta (Bos taurus)
inhibition: -9.02% (inactive)

compound: O=C1CC(=O)Nc2cc(S(=O)(=O)N3CCN(c4cccc(C(F)(F)F)c4)CC3)ccc2N1
target of assay: 14-3-3 protein zeta/delta (Bos taurus)
inhibition: 9.3% (inactive)

compound: O=C1c2ccccc2NC(c2ccccn2)N1NS(=O)(=O)c1ccccc1 (stereo not given)
target of assay: 14-3-3 protein zeta/delta (Bos taurus)
inhibition: 5.35% (inactive)

compound: CCCCCCNS(=O)(=O)c1ccccc1Br
target of assay: 14-3-3 protein zeta/delta (Bos taurus)
inhibition: -7.16% (inactive)

compound: COc1ccccc1CNCc1cccs1
target of assay: 14-3-3 protein zeta/delta (Bos taurus)
inhibition: 0.7% (inactive)

compound: Cc1cc(NC(=O)OC(C)C)ccc1-c1ccc(NC(=O)OC(C)C)cc1C
target of assay: 14-3-3 protein zeta/delta (Bos taurus)
inhibition: 12% (inactive)

The value of inhibition measured for the compound "Cc1ccc(-c2csc(-c3cc(C)on3)n2)cc1" turned out to be 0.81% (inactive)

inhibition reading for "COC(=O)c1c(NC(=O)c2c(Cl)cnn2C)sc(C)c1C" : -11.9% (inactive)

The measured inhibition associated with "Fc1ccccc1/C=N/n1c(-c2cccnc2)n[nH]c1=S" reads 0.38% (inactive)

So for CCOc1ccc(S(=O)(=O)NCC2CCCO2)cc1 (stereo not given) , the logged inhibition turned out to be 90.7% (active)

inhibition for "O=C(c1ccc2c(c1)N(Cc1ccc(F)cc1)C(=O)c1ccccc1S2(=O)=O)N1CCN(c2ccccn2)CC1" is -4.43% (inactive)

====

- target of assay: 14-3-3 protein zeta/delta (Bos taurus)
- test details: disruptors of 14-3-3 zeta phospho-Bad complex – biochemical, TR-FRET, bovine 14-3-3 zeta, primary screen (AID 781);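 also: 0% = full 14-3-3 plus peptide FRET controls and 100% = background without 14-3-3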
- experimental conditions: TR-FRET 14-3-3zeta/Dy647-pBad peptide displacement, 1 h; at 21.7 µM
Among all 220,000 compounds or so, about 1,600 (0.73%) were called active.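 The calls were made as follows: active = inhibition above about 70% (limit read from the data); inactive = the rest.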 Shown is part of a subset that was picked to be rich in actives.
Your reply should match one of these outcome classes. true (1) = active, false (0) = inactive

Reference set (3 entries):
molecule: CCC(Oc1ccccc1)C(=O)NCc1cccnc1 (stereo not given)
target of assay: 14-3-3 protein zeta/delta (Bos taurus)
label: false (0)
//
molecule: COc1ccc(N2CCN(Cc3nnc(-c4ccccc4)o3)CC2)cc1
target of assay: 14-3-3 protein zeta/delta (Bos taurus)
label: false (0)
//
molecule: COc1ccc(OC(C)C(=O)NCCc2nc3ccccc3[nH]2)cc1 (stereo not given)
target of assay: 14-3-3 protein zeta/delta (Bos taurus)
label: false (0)

# outcome recorded in this test, key = "Fc1ccccc1COc1ccccc1CNCc1ccncc1"
true (1)

Recorded call for CCC(=O)Nc1ccc(S(=O)(=O)NCC2CCCO2)cc1 (stereo not given) ?
false (0)

====

- target of assay: 14-3-3 protein zeta/delta (Bos taurus) (UniProt P63103)
- Sequence (P63103 whole entry, looked up): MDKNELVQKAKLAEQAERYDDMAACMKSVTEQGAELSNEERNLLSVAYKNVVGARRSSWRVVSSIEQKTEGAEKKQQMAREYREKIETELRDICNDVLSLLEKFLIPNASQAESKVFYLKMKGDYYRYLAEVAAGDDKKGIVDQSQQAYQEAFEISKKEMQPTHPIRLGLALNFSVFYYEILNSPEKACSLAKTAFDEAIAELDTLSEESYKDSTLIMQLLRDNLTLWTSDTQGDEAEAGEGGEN
- test details: disruptors of 14-3-3 zeta phospho-Bad complex – biochemical, TR-FRET, bovine 14-3-3 zeta, primary screen (AID 781);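 also: 0% = full 14-3-3 plus peptide FRET controls and 100% = background without 14-3-3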
- experimental conditions: TR-FRET 14-3-3zeta/Dy647-pBad peptide displacement, 1 h; at 21.7 µM
Among all 220,000 compounds or so, about 1,600 (0.73%) were called active.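 How the source made its calls: active means inhibition above about 70% (limit read from the data); inactive means the rest.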 This is one part of a sample in which actives are shown more often than they occur.
Outcome field: choose from t for active, f for inactive

compound: O=C(CCc1ccccc1)NCc1cccnc1
label: f
--
compound: CCC1CO/C(=C(\C(=C(Cl)Cl)N2CCOCC2)[N+](=O)[O-])N1 (stereo not given)
label: t

Note: attention shifts to another entry.
For this compound, state the assay outcome: "Cc1ccc2nc3n(c(=O)c2c1)CCC3"
f

====

- target of assay: 14-3-3 protein zeta/delta (Bos taurus)
- test details: disruptors of 14-3-3 zeta phospho-Bad complex – biochemical, TR-FRET, bovine 14-3-3 zeta, primary screen (AID 781);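 also: 0% = full 14-3-3 plus peptide FRET controls and 100% = background without 14-3-3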
- experimental conditions: TR-FRET 14-3-3zeta/Dy647-pBad peptide displacement, 1 h; at 21.7 µM
Among all 220,000 compounds or so, about 1,600 (0.73%) were called active.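 How the source made its calls: active means inhibition above about 70% (limit read from the data); inactive means the rest.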 What follows is part of a selection rich in actives, with near analogues and random picks from the rest.
Can you answer with just one of these options? active, inactive

Past entries and their recorded results:
compound: CCOCN(C(=O)Cn1c(C(C)O)nc2ccccc21)c1c(C)cccc1CC (configuration not stated)
label: inactive

compound: Cn1cc(/C=C/C(=O)N2CCCC(C(=O)c3ccc(C(F)(F)F)cc3)C2)cn1 (configuration not stated)
label: inactive

compound: S=C(Nc1ccc2c(c1)OCO2)N1CCCC1
label: inactive

Recorded test outcome, item "COCn1c(COc2ccccc2)nc2ccccc21"
inactive

Entry "Brc1ccc2c(c1)[C@H]1OCC[C@H]1[C@@H](c1cccs1)N2" : call = ?
inactive

Recorded test outcome, item "COc1ccc(-c2nc3n(c2Br)CCC3)cc1"
active

State the result this test recorded for "Cc1ccc2nc(SCc3cn4c(C)cc(C)nc4n3)[nH]c2c1" .
inactive

Per the assay record, what outcome was assigned to "CSc1n[nH]c(=S)n1N" ?
inactive

====

- target of assay: 14-3-3 protein zeta/delta (Bos taurus)
- test details: disruptors of 14-3-3 zeta phospho-Bad complex – biochemical, TR-FRET, bovine 14-3-3 zeta, primary screen (AID 781);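 also: 0% = full 14-3-3 plus peptide FRET controls and 100% = background without 14-3-3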
- experimental conditions: TR-FRET 14-3-3zeta/Dy647-pBad peptide displacement, 1 h; at 21.7 µM
Hit rate of the full screen: of about 220,000 compounds, about 1,600 (0.73%) were called active.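 Rule for the calls: active = inhibition above about 70% (limit read from the data); inactive = the rest.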 What follows is part of a selection rich in actives, with near analogues and random picks from the rest.
Mark one answer only. Choices: 1 (active), -1 (inactive)

Field: example entries. Status: answers known.
compound: CNc1ccc(NC(C)=O)cc1[N+](=O)[O-]
label: -1

compound: C=CCn1c(N)c(C(=O)OCC(C)C)c2nc3ccccc3nc21
label: 1

compound: Cc1ccc(Nc2ccc(C(N)=O)cc2[N+](=O)[O-])cc1
label: -1

compound: Cc1ccc(N2C(=O)CC(N3CCSCC3)C2=O)c(C)c1 (centres undefined)
label: -1

How was "O=C(N/N=C/c1ccco1)c1csc2c1CCCC2" classified in this test?
-1

Please share the test call associated with "c1ccc(COc2ccccc2CNCc2cccnc2)cc1" .
1

Check the results log: what was the call for "COc1ccc(OCc2ccc(-c3nc4ccccc4c(=O)n3N)o2)cc1" ?
-1

Recorded test call requested for "Cc1onc(-c2ccccc2)c1C(=O)N=C(N)c1ccc(Cl)cc1"
-1

Any idea what this test logged for "CCCCN(C)C(=O)c1ccc2c(c1)N(CC)C(=O)c1ccccc1S2(=O)=O" ?
1
